Target: MAPK13 (human)
Experiment: radiometric filter-binding kinase assay
Conditions: compound 10.0 µM; ATP 100 µM
measured property: residual activity (%)
Report as a plain number; the unit % is understood.

Field: example entries. Status: answers known.
                               entry_smiles  quantity_unit  reading
0    O=C1Cc2c([nH]c3ccc(Br)cc23)-c2ccccc2N1              %      104
1                   Nc1ncnc2c1cnn2-c1ccccc1              %       95
2  COC(=O)[C@@]1(OC)C[C@@H]2O[C@]1(C)n1c3ccccc3c3c4c(c5c6ccccc6n2c5c31)C(=O)N(C)C4              %      105
3    Cc1ccc(-c2nn(C(C)(C)C)c3ncnc(N)c23)cc1              %      102
4            O=C1c2ccccc2-c2n[nH]c3cccc1c23              %       98

**Q:** Query residual activity on MAPK13 (human) for "CN(C)S(=O)(=O)c1ccc2c(c1)/C(=C/c1cc3c([nH]1)CCCC3)C(=O)N2"
**A:** 78

Where these numbers come from: the kinase profiling compilation of Christmann-Franck et al. (2016)
